# assay.info: Zebrafish embryo toxicity assay
# condition.details: in vivo, other: incubation of embryos with the compound, 0 to 96 hpf
recorded.endpoint: LC50

Item under review: CCCCCCCC(=O)OCC1OC(Oc2cc(O)cc(/C=C/c3ccc(O)cc3)c2)C(O)C(O)C1O (centres unmarked) [Compound 2] . Reported LC50?
< 140 µM

Look up LC50: Oc1ccc(C=Cc2cc(O)cc(O)c2)cc1 [RES, resveratrol, reference compound]
< 1000 µM
